These data points were gathered from patent US11084826B2.

test system: rgRSV224 virus; assay: Antiviral activity: inhibition of rgRSV224 (GFP-expressing RSV) replication in HeLa cells, GFP expression read-out; format: cell-based, respiratory syncytial virus (RSV); conditions: rgRSV224 virus (MOI=1) in HeLa cells, GFP read-out
Parameter RSV HELA pEC50: see the listing below.
Please give only the number in your answer, with no unit.

The reported RSV HELA pEC50 of the compound CCc1cc(C(=O)N2CCCCCC2C)nc2cc(-c3ccc(N(C)C)cc3)nn12 (stereo not drawn) was 5.52

The reported RSV HELA pEC50 of the compound "CCc1cc(C(=O)N2CCCCC[C@H]2C)nc2cc(-c3ccc(/C=C/C(=O)O)cc3F)nn12" was 7.00
